target under test: human JAK3 (a.a. 781-1124) (Homo sapiens, UniProt P52333)
Construct: JAK3 (a.a. 781-1124); His tag (N); made in house; host or cells: insect cells (baculovirus)
Sequence (P52333 781-1124): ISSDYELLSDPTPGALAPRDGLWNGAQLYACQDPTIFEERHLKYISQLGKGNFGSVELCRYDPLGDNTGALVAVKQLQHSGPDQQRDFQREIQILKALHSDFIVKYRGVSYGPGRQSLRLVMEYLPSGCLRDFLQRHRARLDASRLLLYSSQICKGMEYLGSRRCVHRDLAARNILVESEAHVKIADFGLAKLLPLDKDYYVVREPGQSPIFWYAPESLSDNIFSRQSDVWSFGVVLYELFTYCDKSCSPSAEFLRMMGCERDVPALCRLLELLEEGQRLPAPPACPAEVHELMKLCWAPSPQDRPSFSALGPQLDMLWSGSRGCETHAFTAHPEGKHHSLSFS
method: In vitro JAK kinase assay (HTRF, phosphorylation of a biotinylated peptide), JAK3
Format: biochemical
protocol conditions: Table B1
pIC50: −log10 of the molar value.
measured metric: pIC50

Answered cases to consult:
# compound, pIC50
measured = [
    ("COc1ccccc1N1CCN(C(=O)Nc2ccc3cc2CCc2cncc(c2)Nc2ncc(Cl)c(n2)N3)CC1 [Example B298, tris(trifluoroacetate)]", "< 6.40"),
    ("CC1CN(C(=O)Nc2ccc3cc2CCc2cncc(c2)Nc2ncc(Cl)c(n2)N3)CCN1c1ccccc1 (stereo not drawn) [Example B320, tris(trifluoroacetate)]", "< 6.40"),
]

Now for another entry.
Prompt line: Find the recorded pIC50 belonging to CN(Cc1ccc2cc1CCc1cncc(c1)Nc1ncc(Cl)c(n1)N2)C(=O)C1CCN(C(=O)c2ccno2)CC1 [Example B336, bis(trifluoroacetate)] and report it.
Response line: < 6.70
